assay_procedure: changes in parasitized red cell lysis, either direction – P. falciparum Indochina, OD700, 3 h, PSAC antagonist project, primary screen (AID 1156)
test_conditions: P. falciparum-infected erythrocytes, osmotic lysis, higher = more signal, called active from +8 up or from −8 down
// reported z-score per item
Please give the numeric answer without any surrounding text.

Worked examples follow.
- COc1ccc([Si](C)(C)[C@@H]2[C@@H](CC(=O)N3CCC[C@H]3CO)O[C@]3(C(=O)N(Cc4cccc(N5C(=O)COc6ccccc65)c4)c4ccccc43)[C@H]2C)cc1: -1.47
- COCC(=C=CC[C@H](O)c1ccccc1OCCO)C[C@H](O)c1ccccn1: 1.74
- Cc1ccc(F)cc1S(=O)(=O)N[C@@H]1CCN(Cc2ccc(Br)cc2)C1: 0.759

Next compound, z-score to be filled in.
z-score lookup needed for "C=CC[C@@H](OC(=O)Nc1ccc(OC)cc1)c1ccc(O)c(F)c1" , thanks.
-1.12
